Known pKd of a selection of binders
# Target under test: T1, canine PD-1, full-length, membrane-embedded
# T1 chain: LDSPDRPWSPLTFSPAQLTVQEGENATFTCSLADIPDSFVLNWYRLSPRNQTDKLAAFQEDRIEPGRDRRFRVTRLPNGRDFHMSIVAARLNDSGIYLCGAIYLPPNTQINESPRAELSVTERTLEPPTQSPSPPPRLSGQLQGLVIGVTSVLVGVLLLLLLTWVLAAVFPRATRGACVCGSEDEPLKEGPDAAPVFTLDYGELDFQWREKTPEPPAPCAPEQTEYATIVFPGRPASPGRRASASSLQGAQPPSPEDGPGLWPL
# Assay summary: flow cytometry; apparent Kd of cell binding
# pKd = -log10(concentration in molar units)

| Binder | pKd |
| --- | --- |
| PMX127 (antibody, V domains shown) VH: EVQLVESGGDLVKPGGSLRLSCVASGFSFSRYHMSWVRQAPGKGLQWVAYIVSGGISTSYADAVKGRFTISRDNAKNTLFLQMNSLRAEDTAVYYCATYGSYFFDTWGQGTLVTVSS VL: DIVMTQTPLSLSVSPGETASIFCKASQSLLHSDGKSYLNWFRQKPGQSPQRLIYRVSNRDPGVPDRFSGSGSGTDFTLRISRVEADDTGLYYCGQVIQDPTFGAGTKVELK | 9.07 |

Note to self: pKd recorded for PMX125 (antibody, V domains shown) VH: EVQLVESGGDLVKPGGSLRLSCVASGFSFSRYHMSWVRQAPGKGLQWVAYIISGGITTSYADAVKGRFTISRDNAKNTLFLQMNSLRAEDTAVYYCATYGSYFFDKWGQGTLVTVSS VL: DIVMTQTPLSLSVSPGETASISCKASQSLLHSDGKSYLNWFRQKPGQSPQRLIYRVSNRDPGVPDRFSGSGSGTDFTLRISRVEADDTGLYYCGQVIQDPTFGAGTKVELK was 8.97

The measured pKd associated with PMX126 (antibody, V domains shown) VH: EVQLVESGGDLVKPAGSLRLSCLASGFTFSSYSMSWVRQAPEKGLQSVAGINSDGDRTYYTDAVKGRFTISRDNAKSTVYLQMNSLRAEDTAMYYCVRGFSSFNAFGYWGQGTLVTVSS VL: DIVMTQTPLSLSVSPGETASISCKASQSLLHSDGNTYLSWFRQKPGQSPHRLIYAVSHRHPGVPDRFSGSGSGTDFTLRISRVEADDAGLYYCGQVIQDPWTFGAGTKVELK reads 8.98

Note to self: pKd recorded for PMX151 (antibody, V domains shown) VH: EVQLVESGGDLVKSGGSLRLSCVASGFTFNTYSMNWVRQAPGKGLQWVARIKSSGSSTTYADAVKGRFTVSRDIAKNTLFLQMNSLRAEDTALYYCASEPGARYEIYFVESFFDYWGQGTLVTVSS VL: SYVLTQLPSKSVTLKQPAHITCGGDNIGSKSVHWYQQKLGQAPVLIIYYDSSRPTGIPERFSGANSGNTATLTISGALAEDEADYYCQVWDSSAQAWIFGEGTQLTVL was 8.53
